- subject of test: UniProt:P29597
- test protocol: TYK2 kinase inhibition (Table A1)
- Format: biochemical
- condition parameters: Table D1
pIC50: −log10 of the molar value.
Below is a list of entries, each paired with its recorded pIC50 value.

N#Cc1ccccc1N1CCN(C(=O)COc2ccc3cc2CCc2cncc(c2)Nc2ncc(Cl)c(n2)N3)CC1 [Example D235, tris(trifluoroacetate)] | < 6.40

Please turn your attention to the following entry.
Noted for O=C(NCc1ccco1)N1CCC(CCOc2ccc3cc2CCc2cncc(c2)Nc2ncc(Cl)c(n2)N3)CC1 [Example D165, bis(trifluoroacetate)] : its pIC50 reads < 6.40

* * *

Reported pIC50 values for the following compounds.
- subject of test: human JAK3 (a.a. 781-1124) (Homo sapiens)
- Construct: JAK3 (a.a. 781-1124); His tag (N); made in house; host or cells: insect cells (baculovirus)
- test protocol: In vitro JAK kinase assay (HTRF, phosphorylation of a biotinylated peptide), JAK3
- Assay type: biochemical
- condition parameters: Table D1
pIC50: −log10 of the molar value. Counter-ions that a name gives are not always drawn.

Here are 2 compounds together with their reported answers.
COc1ccccc1N1CCN(C(=O)COc2ccc3cc2CCc2cncc(c2)Nc2ncc(Cl)c(n2)N3)CC1 [Example D241, tris(trifluoroacetate)] | < 6.40
O=C(Cn1c(=O)oc2c3cc(cc21)Nc1nc(ncc1Cl)Nc1cccc(c1)CC3)N1CCOCC1 [Example D187, trifluoroacetate] | 6.89

Sure, the documented pIC50 for O=C(C[C@H]1CCN(c2nc3ccccc3s2)C1)Nc1ccc2cc1CCc1cncc(c1)Nc1ncc(Cl)c(n1)N2 [Example D136, tris(trifluoroacetate)] is < 6.00

* * *

- subject of test: human JAK3 (a.a. 781-1124) (Homo sapiens, UniProt P52333)
- Construct: JAK3 (a.a. 781-1124); His tag (N); made in house; host or cells: insect cells (baculovirus)
- Sequence (P52333 781-1124): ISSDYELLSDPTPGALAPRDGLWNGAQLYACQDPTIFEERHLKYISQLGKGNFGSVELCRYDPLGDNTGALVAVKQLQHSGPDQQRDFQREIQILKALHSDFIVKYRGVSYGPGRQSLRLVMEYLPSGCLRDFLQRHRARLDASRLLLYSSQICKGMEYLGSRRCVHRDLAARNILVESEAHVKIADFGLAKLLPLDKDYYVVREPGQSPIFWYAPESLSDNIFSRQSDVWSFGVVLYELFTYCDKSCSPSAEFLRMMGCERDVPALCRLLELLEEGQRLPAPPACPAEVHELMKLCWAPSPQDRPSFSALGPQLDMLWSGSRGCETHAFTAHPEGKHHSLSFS
- test protocol: In vitro JAK kinase assay (HTRF, phosphorylation of a biotinylated peptide), JAK3
- Assay type: biochemical
- condition parameters: method AA1 (3 μM ATP) or AA2 (1000 μM ATP), not stated per value
pIC50: −log10 of the molar value. Where a name gives a salt, the structure may show the parent alone.
readout name: pIC50

NC(=O)COc1ccc2cc1CCc1cccc(c1)Nc1ncc(Cl)c(n1)N2 [Example A15, trifluoroacetate] | 8.32
O=C(Nc1ccc2cc1CCc1cccc(c1)Nc1ncc(Cl)c(n1)N2)C1CCCN(C(=O)c2ccccc2)C1 (stereo not shown) [Example A48, trifluoroacetate] | 7.25
c1cc2cc(c1)Nc1ccnc(n1)Nc1cccc(c1)CC2 [Example A3, trifluoroacetate] | 7.35
O=C(CC1CCN(C(=O)c2ccccc2)CC1)Nc1ccc2cc1CCc1cccc(c1)Nc1ncc(Cl)c(n1)N2 [Example A56, trifluoroacetate] | 7.05

A. Cc1cc(N2CCOCC2)c2cc1Nc1ncc(Cl)c(n1)Nc1cccc(c1)CC2 [Example A6, trifluoroacetate]
B. CC(C)NC(=O)N1CCC(CC(=O)Nc2ccc3cc2CCc2cccc(c2)Nc2ncc(Cl)c(n2)N3)CC1 [Example A84, trifluoroacetate]
query: Response body: label of entry with the larger pIC50; valid values A , B . // caller expects the label of the chosen entry
result: B

* * *

- subject of test: TYK2 (Homo sapiens, UniProt P29597)
- Sequence (P29597 whole entry): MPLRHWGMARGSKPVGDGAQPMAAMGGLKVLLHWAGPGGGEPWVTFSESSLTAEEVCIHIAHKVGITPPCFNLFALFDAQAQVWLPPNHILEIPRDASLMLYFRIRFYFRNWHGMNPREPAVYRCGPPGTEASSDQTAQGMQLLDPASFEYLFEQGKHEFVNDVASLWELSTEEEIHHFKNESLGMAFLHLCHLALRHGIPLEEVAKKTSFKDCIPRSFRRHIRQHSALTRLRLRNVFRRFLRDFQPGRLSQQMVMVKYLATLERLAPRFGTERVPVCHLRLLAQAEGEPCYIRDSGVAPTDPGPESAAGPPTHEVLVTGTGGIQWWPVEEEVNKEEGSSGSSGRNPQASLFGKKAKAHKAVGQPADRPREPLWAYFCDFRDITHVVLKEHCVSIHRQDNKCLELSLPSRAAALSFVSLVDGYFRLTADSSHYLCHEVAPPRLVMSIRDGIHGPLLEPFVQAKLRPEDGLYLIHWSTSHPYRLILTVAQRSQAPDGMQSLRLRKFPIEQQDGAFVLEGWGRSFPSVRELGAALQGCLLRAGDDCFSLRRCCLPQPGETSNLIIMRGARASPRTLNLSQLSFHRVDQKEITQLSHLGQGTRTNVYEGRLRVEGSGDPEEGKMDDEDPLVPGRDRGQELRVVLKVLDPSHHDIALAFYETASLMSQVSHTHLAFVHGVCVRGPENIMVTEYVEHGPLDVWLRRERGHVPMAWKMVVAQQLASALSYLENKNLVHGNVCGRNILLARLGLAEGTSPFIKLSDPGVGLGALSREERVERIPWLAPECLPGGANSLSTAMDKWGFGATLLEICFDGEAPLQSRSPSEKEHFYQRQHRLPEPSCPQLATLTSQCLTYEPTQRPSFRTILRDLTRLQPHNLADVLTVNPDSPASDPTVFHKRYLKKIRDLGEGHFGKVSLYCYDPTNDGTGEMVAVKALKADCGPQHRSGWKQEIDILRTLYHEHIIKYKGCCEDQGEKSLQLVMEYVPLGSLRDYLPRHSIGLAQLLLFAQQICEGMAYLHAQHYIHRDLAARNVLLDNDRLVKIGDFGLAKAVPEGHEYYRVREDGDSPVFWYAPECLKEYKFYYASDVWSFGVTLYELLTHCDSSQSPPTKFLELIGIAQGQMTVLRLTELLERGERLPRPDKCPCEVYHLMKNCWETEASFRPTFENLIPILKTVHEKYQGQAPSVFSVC
- test protocol: TYK2 kinase inhibition (Table A1)
- Type: biochemical
pIC50: −log10 of the molar value.
readout name: pIC50

CCS(=O)(=O)N1CCC(CC(=O)Nc2ccc3cc2CCc2cncc(c2)Nc2ncc(Cl)c(n2)N3)CC1 [Example A98, bis(trifluoroacetate)] | 8.28

P. Cc1cccc(NC(=O)N2CCC(CC(=O)Nc3ccc4cc3CCc3cncc(c3)Nc3ncc(Cl)c(n3)N4)CC2)c1 [Example A150, bis(trifluoroacetate)]
Q. O=C(Nc1ccccc1)N1CCC(COc2ccc3cc2CCc2cncc(c2)Nc2ncc(Cl)c(n2)N3)C1 (stereo not shown) [Example C59, bis(trifluoroacetate)]
query: Two entries are listed, P and Q . Which one carries the higher pIC50? Response format: the label of the selected entry.
result: P
(P: 8.29, Q: 6.43)
